test system: L1210 leukemia ip in BDF1 mice, survival T/C; assay: NCI In Vivo Anticancer Drug Screen. Data for tumor model L1210 Leukemia (intraperitoneal) in B6D2F1 (BDF1) mice; settings: endpoint: mean survival time; dose: 100.0 mg/kg/injection; schedule: Q01DX009 (ip); vehicle: saline; higher = longer survival
Toxic doses and inconclusive results are not listed.
Experimental endpoint: T/C

> print(dat)
                                   compound    endpoint.value
1           O=S(=O)(NC(=S)c1ccccc1)c1ccccc1   97 % of control
2  CC(=O)Nc1ccc(OC(=O)Nc2ccc([N+](=O)[O-])cc2Cl)cc1  102 % of control
3  COC(=O)CCC(C)[N+](=O)[O-] (stereo not drawn)  112 % of control
4                     O=C1CC(=O)Nc2ccccc2N1   86 % of control

// for each compound below, give its T/C
1. O=S(=O)(O)C(O)C(Cl)(Cl)Cl (stereo not drawn)
2. CC(O)C(C)Cl (stereo not drawn)
3. c1ccc(CCSc2ncnc3nc[nH]c23)cc1
4. COc1cc(I)c(CC(=O)O)cc1OC

1. 98 % of control
2. 103 % of control
3. 122 % of control
4. 93 % of control

Here are 8 compounds. What values of T/C were reported for them?
1. NC(Cc1cc(Cl)c(O)c(Cl)c1)C(=O)O (stereo not drawn)
2. CC1=NC(C(=O)Cl)NN1c1ccccc1 (stereo not drawn)
3. CN=C(N)Nc1ccccc1
4. C[n+]1ccn(CC(=O)c2ccccc2)c1
5. Cc1cc(C)c(S(=O)(=O)Cc2cc(Cl)cc(Cl)c2O)c(C)c1
6. O=S(=O)(O)CNc1ccccc1
7. C[C@@]1(O)CCCC[C@H]1O
8. CCOC1OCN(C)CC1(C)C (stereo not drawn)

1: 103 % of control; 2: 95 % of control; 3: 101 % of control; 4: 93 % of control; 5: 105 % of control; 6: 93 % of control; 7: 95 % of control; 8: 109 % of control

Dear reader, for each entry below, please note its T/C.
1. O=CN(Cc1cnccn1)Cc1cnccn1
2. CCC(C)(CC(=O)O)CC(=O)O
3. COc1ccc(CC[N+]2=Cc3cc(OC)c(OC)cc3CC2)cc1OC
4. CN(C)CC(=O)c1ccc(Cl)cc1

1. 96 % of control
2. 107 % of control
3. 105 % of control
4. 102 % of control

Parameter requested: T/C. Apply to each item below.
1. COc1ccc(N=C2OC(=O)c3ccccc32)cc1
2. C=C1CCC2(C(C)C)CC12 (stereo not drawn)
3. CC(=O)CC(O)(C(F)(F)F)C(F)(F)F
4. OC1CCNc2ccccc21 (stereo not drawn)
5. O=S(=O)(O)CCBr
6. CCC(C)C(CCN(C)CC)(CNC(=O)CN(CC)CC)c1cccc2ccccc12 (stereo not drawn)
7. Cc1ccc(S)cc1
8. ClCOCCCCOCCl

["91 % of control", "103 % of control", "105 % of control", "104 % of control", "97 % of control", "96 % of control", "87 % of control", "87 % of control"]

For the 5 compounds below, give their T/C values.
1. CCC1OC(C)CC(C)(C)O1 (stereo not drawn)
2. COc1ccc(COC(=O)NC2CCCCC2)cc1OC
3. Cc1cccc(Br)[n+]1[O-]
4. Clc1ccccc1Nc1nnnc2ccccc12
5. COc1cc(N2CCOCC2)ccc1[N+](=O)[O-]

101 % of control
93 % of control
112 % of control
95 % of control
103 % of control
